I'd appreciate it if you could supply pIC50 values for the items below.
- target_of_assay: Receptor-binding domain (RBD) of the SARS-CoV-2 spike protein, WA01/2020 strain (SARS-CoV-2, WA01/2020 strain, UniProt P0DTC2 319-541)
- protocol_description: ELISA, antibody blocks RBD binding to human ACE2
Give bare numbers, as −log10 of the molar value.

antibody 1231 (antibody, V domains shown) VH: QVQLVQSGSELKKPGASVKVSCTGYGYTFTSYAMNWVRQAPGQGLEWMGWINTNTGHPAYAQGFTGRFVFSLDSSVSTAYLQISSLKAEDTAVYYCATTIRAGGYFDFWGQGTLVTVSS VL: DIQLTQSPSFLSASVGDRVTITCRASQGISSYLAWFQQKPGKAPKLLIYVVSILQSGVPSRFSGSGSGTEFTLTISSLQPEDFATYYCQQLNSYPYTFGQGTKLEIK ... 8.43

Required: pIC50, one value per binder below.
1. antibody 2794 (antibody, V domains shown) VH: QVQLVQSGAEVKKPGSSLKVSCKASGGTFNNFAISWVRQAPGQGPEWMGRINPILSAAKYAQKFQGRLTITADKSTTTAYMELSSLRSEDTAVYYCAPTGTGESWWFDPWGQGTLVTVSS VL: QSVLTQPPSASGTPGQRVTISCSGSSSNIGTNYVYWYQQLPGTAPKVLIYGNNQRPSGVPDRFSGSKSGSSASLAISGLRSEDEADYYCAAWDDSLSGPVFGGGTKLTVL
2. antibody 2564 (antibody, V domains shown) VH: QVQLVQSGAEVKKPGSSVRVSCKASGGTFISYTFNWVRQAPGQGLEWMGRIIPIFGIVNYAQKFQGRVTIAADKSTSTAYMELSSLRSEDTAMYYCATATVDYDSGEEQSSFDPWGQGTLVTVSS VL: EIVLTQSPGTLSLSPGERATLSCRASQSVSSSYLAWYQQKAGQTPRLLIYAASSRATGVPDRFSGSGSGTDFTLTISRLEAEDFAVYYCQQSWTFGQGTKVEIK
3. antibody 1679 (antibody, V domains shown) VH: QITLKESGPTLVKPTQTLTLTCTFSGFSLSTVGVGVAWIRQPPGKALEWLALIYWDDDKRYSPSLKSRLTITKDTSKNHVVLTMTNMDPVDTATYYCAHHIIAALVDVWGKGTTVTVSS VL: QSALTQPASVSGSPGQSITISCTGTSSDVGGNNYVSWYQHHPGEAPKLMIYEVSNRPSGVSNRFSGSKSGNTASLTISGLQAEDEADYYCSSYTTSSTLVVFGGGSKLTVL

1: 9.86; 2: 9.11; 3: 10.15
